biological target: E. coli Topo IV (Escherichia coli, UniProt P0AFI2); construct: purchased Inspiralis (Norwich, UK); assay: Topo IV Relaxation High Throughput Plate assay, E. coli; type: biochemical; conditions: LE = (1.37/HA) × pIC50
Sequence (P0AFI2 whole entry): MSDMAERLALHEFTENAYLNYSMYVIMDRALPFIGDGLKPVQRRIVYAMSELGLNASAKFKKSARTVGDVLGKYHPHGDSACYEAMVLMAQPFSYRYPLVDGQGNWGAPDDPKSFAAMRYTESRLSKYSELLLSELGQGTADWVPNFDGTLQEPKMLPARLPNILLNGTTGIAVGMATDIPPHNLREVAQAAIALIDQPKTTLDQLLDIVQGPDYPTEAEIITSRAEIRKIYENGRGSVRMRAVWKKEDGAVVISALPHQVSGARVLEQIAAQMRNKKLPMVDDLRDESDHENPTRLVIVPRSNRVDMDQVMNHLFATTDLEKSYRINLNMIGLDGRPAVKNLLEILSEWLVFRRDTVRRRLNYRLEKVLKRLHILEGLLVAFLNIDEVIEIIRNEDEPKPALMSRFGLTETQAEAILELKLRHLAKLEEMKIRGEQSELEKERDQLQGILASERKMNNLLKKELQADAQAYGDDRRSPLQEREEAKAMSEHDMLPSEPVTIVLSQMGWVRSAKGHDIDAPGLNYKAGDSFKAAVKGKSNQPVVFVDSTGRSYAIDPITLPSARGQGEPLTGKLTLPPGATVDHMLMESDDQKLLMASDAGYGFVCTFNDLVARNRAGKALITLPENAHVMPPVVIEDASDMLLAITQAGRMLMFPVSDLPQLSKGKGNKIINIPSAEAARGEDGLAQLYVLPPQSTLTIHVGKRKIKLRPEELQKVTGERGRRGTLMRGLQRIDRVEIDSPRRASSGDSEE
Sequence (P20083 whole entry, further chain): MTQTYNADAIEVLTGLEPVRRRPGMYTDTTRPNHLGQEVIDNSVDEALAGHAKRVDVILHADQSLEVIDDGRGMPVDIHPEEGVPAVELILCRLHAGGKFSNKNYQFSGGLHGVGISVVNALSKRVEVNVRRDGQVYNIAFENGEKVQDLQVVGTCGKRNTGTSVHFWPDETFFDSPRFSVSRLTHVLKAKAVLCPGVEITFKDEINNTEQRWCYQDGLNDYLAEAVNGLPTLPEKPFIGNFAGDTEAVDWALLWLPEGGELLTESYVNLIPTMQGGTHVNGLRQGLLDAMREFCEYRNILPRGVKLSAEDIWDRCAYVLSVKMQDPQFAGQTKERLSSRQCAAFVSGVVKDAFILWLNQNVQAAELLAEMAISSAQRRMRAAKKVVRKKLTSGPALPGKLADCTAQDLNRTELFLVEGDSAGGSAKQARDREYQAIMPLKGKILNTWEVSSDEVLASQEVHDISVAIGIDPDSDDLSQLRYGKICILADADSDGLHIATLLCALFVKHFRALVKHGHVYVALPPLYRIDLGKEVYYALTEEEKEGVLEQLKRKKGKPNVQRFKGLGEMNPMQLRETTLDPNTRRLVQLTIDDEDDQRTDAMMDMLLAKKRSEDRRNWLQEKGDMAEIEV
Entries whose LE Topo IV E. coli is below 0.3 take 1; entries at or above 0.3 take 0.

[
  {
    "molecule": "COc1ccc2nccc(CCN3CCC(NCc4nc5ccccc5n4C)CC3)c2n1 [Compound 3]",
    "assigned-label": 1
  },
  {
    "molecule": "COc1ccc2nccc(CCN3CCC(NCc4cnn(-c5ccccc5)c4)CC3)c2n1 [Compound 5]",
    "assigned-label": 1
  },
  {
    "molecule": "COc1ccc2nccc(CCN3CCC(NCc4ccc(C(N)=O)cc4)CC3)c2n1 [Compound 17]",
    "assigned-label": 1
  }
]

Task item: Would you kindly verify if LE Topo IV E. coli of COc1ccc2nccc(CCN3CCC(NCc4ccc(F)cc4)CC3)c2n1 [Compound 12] is strictly less than 0.3?
Reply: 0

Task item: Another: COc1ccc2nccc(CCN3CCC(NCc4ccccc4)CC3)c2n1 [Compound 11]
Reply: 1

Task item: Another: COc1ccc2nccc(CCN3CCC(NCc4ccc(CO)cc4)CC3)c2n1 [Compound 16]
Reply: 1

###

target: E. coli Topo IV (Escherichia coli, UniProt P0AFI2); construct: purchased Inspiralis (Norwich, UK); assay: Topo IV Relaxation High Throughput Plate assay, E. coli; assay type: biochemical
Entries whose IC50 is below 1 µM take Y; entries at or above 1 µM take N.

Here's what some known entries look like.
[
  {
    "structure-notation": "COc1ccc2nccc(CCN3CCC(NCc4ccc(CO)cc4)CC3)c2n1",
    "assigned-label": "N"
  },
  {
    "structure-notation": "COc1ccc(CNC2CCN(CCc3ccnc4ccc(OC)nc34)CC2)cn1",
    "assigned-label": "N"
  },
  {
    "structure-notation": "COc1ccc2nccc(CCN3CCC(NCc4cnn(-c5ccccc5)c4)CC3)c2n1",
    "assigned-label": "Y"
  },
  {
    "structure-notation": "COc1ccc2nccc(CCN3CCC(NCc4cnn(-c5ccccc5)n4)CC3)c2n1",
    "assigned-label": "Y"
  }
]

Please find the next molecule below.
Task item: Would you kindly verify if IC50 of `COc1ccc2nccc(CCN3CCC(NCc4ccc(C(F)(F)F)nc4)CC3)c2n1` is strictly less than 1 µM?
Reply: N

###

tested on: E. coli N43 (CGSC# 5583); assay: MIC broth microdilution, E. coli N43; assay type: cell-based; settings: Escherichia coli, read-out: E. coli N43 MIC in molar
Entries whose MIC is below 4 µM take true; entries at or above 4 µM take false.

Task item: Would you kindly verify if MIC of `COc1ccc2nccc(CCN3CCC(NCc4c(C)nc5c(C)cccn45)CC3)c2n1` is strictly less than 4 µM?
Reply: false

###

system: E. coli (ATCC 25922); assay: MIC broth microdilution, E. coli ATCC 25922; format: cell-based; details: Escherichia coli, ATCC25922; read-out: MIC E. coli (ATCC 25922)
observed-property: MIC

[
  {
    "compound": "COc1ccc2nccc(CCN3CCC(NCc4ccc(C(F)(F)F)nc4)CC3)c2n1",
    "system-tested": "E. coli (ATCC 25922)",
    "MIC": "32 µg/mL"
  },
  {
    "compound": "COc1ccc2nccc(CCN3CCC(NCc4ccc(C(N)=O)cc4)CC3)c2n1",
    "system-tested": "E. coli (ATCC 25922)",
    "MIC": "> 128 µg/mL"
  },
  {
    "compound": "COc1ccc2nccc(CCN3CCC(NCc4nc5ccccc5n4C)CC3)c2n1",
    "system-tested": "E. coli (ATCC 25922)",
    "MIC": "> 128 µg/mL"
  },
  {
    "compound": "COc1ccc2nccc(CCN3CCC(NCc4cnn(-c5ccccc5)n4)CC3)c2n1",
    "system-tested": "E. coli (ATCC 25922)",
    "MIC": "64 µg/mL"
  },
  {
    "compound": "COc1ccc2nccc(CCN3CCC(NCc4ccc(Br)cc4)CC3)c2n1",
    "system-tested": "E. coli (ATCC 25922)",
    "MIC": "2 µg/mL"
  },
  {
    "compound": "COc1ccc2nccc(CCN3CCC(NCc4ccc(OC(F)F)c(O)c4)CC3)c2n1",
    "system-tested": "E. coli (ATCC 25922)",
    "MIC": "8 µg/mL"
  },
  {
    "compound": "COc1ccc2nccc(CCN3CCC(NCc4ccc(I)cc4)CC3)c2n1",
    "system-tested": "E. coli (ATCC 25922)",
    "MIC": "2 µg/mL"
  },
  {
    "compound": "COc1ccc2nccc(CCN3CCC(NCc4ccc(OC(F)F)c(OC)c4)CC3)c2n1",
    "system-tested": "E. coli (ATCC 25922)",
    "MIC": "32 µg/mL"
  }
]

Task item: Consider the compound `COc1ccc2nccc(CCN3CCC(NCc4ccc(Cl)cc4)CC3)c2n1` and give its measured MIC.
Reply: 4 µg/mL

Task item: Another: `COc1ccc2nccc(CCN3CCC(NCc4cnn(-c5ccc(F)cc5)c4)CC3)c2n1`
Reply: 32 µg/mL

Task item: Another: `C=CCn1cc(CNC2CCN(CCc3ccnc4ccc(OC)nc34)CC2)cn1`
Reply: 16 µg/mL

###

system: HUVEC; assay: Metabolic activity assessment (cytotoxicity), HUVEC; type: cell-based; settings: Homo sapiens, metabolic activity after 72 h treatment
Entries and their IC50 values follow.
Give the value in µM but do not write µM after it.

[
  {
    "structure-notation": "COc1ccc2nccc(CCN3CCC(NCc4cnn(-c5ccccc5)c4)CC3)c2n1",
    "observed-property": "IC50",
    "endpoint-value": 10.7
  }
]

Pending compound:
Task item: Consider the compound `COc1ccc2nccc(CCN3CCC(NCc4cnn(-c5ccc(F)cc5)c4)CC3)c2n1` and give its measured IC50.
Reply: 9.64

###

test system: E. coli N43 (CGSC# 5583); assay: MIC broth microdilution, E. coli N43; format: cell-based; settings: Escherichia coli, read-out: E. coli N43 MIC in molar
Entries whose MIC is below 10 µM take label 1; entries at or above 10 µM take label 0.

[
  {
    "compound": "COc1ccc2nccc(CCN3CCC(NCc4cnn(-c5ccccc5)n4)CC3)c2n1 [Compound 8]",
    "assigned-label": "label 1"
  }
]

Task item: Would you kindly verify if MIC of COc1ccc2nccc(CCN3CCC(NCc4ccc(C(N)=O)cc4)CC3)c2n1 [Compound 17] is strictly less than 10 µM?
Reply: label 0

Task item: Another: COc1ccc2nccc(CCN3CCC(NCc4ccccc4)CC3)c2n1 [Compound 11]
Reply: label 0

Task item: Another: COc1ccc2nccc(CCN3CCC(NCc4ccc(C(F)(F)F)nc4)CC3)c2n1 [Compound 21]
Reply: label 1

###

Entries and their IC50 values follow.
system: HepG2; assay: Metabolic activity assessment (cytotoxicity), HepG2; format: cell-based; settings: Homo sapiens, HepG2, 72 h, metabolic activity after 72 h treatment
Give the value in µM but do not write µM after it.

[
  {
    "structure-notation": "COc1ccc2nccc(CCN3CCC(NCc4ccc(OC(F)F)c(OC)c4)CC3)c2n1",
    "unit-symbol": "µM",
    "IC50": 6.31
  }
]

Pending molecule:
Task item: Identify the measured IC50 of `COc1ccc2nccc(CCN3CCC(NCc4ccc(OC(F)F)c(O)c4)CC3)c2n1` for HepG2.
Reply: 10.9

###

molecular target: S. aureus Topo IV (Staphylococcus aureus); construct: purchased Inspiralis (Norwich, UK); test: biochemical; settings: mean of two to four measurements; read-out: Topoisomerase IV IC50 S. aureus
Sequence (Q2FYS5 whole entry): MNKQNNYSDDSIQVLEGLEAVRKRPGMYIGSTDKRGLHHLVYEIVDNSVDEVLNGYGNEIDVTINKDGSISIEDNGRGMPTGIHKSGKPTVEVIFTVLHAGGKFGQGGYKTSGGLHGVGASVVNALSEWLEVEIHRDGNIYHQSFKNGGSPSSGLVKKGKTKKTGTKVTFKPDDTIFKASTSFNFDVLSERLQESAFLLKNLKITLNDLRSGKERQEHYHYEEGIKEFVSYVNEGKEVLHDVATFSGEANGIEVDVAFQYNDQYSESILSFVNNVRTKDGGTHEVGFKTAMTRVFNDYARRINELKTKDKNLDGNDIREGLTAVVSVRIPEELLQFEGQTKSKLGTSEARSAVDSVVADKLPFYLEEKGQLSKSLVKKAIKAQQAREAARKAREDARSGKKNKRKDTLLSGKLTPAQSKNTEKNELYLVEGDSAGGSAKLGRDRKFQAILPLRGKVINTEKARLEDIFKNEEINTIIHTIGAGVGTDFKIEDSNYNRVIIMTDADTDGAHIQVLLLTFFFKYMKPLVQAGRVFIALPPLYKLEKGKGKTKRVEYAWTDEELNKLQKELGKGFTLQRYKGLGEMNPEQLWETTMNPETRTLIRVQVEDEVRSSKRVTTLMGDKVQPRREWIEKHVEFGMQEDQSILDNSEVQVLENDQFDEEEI
Sequence (Q2FYS4 whole entry): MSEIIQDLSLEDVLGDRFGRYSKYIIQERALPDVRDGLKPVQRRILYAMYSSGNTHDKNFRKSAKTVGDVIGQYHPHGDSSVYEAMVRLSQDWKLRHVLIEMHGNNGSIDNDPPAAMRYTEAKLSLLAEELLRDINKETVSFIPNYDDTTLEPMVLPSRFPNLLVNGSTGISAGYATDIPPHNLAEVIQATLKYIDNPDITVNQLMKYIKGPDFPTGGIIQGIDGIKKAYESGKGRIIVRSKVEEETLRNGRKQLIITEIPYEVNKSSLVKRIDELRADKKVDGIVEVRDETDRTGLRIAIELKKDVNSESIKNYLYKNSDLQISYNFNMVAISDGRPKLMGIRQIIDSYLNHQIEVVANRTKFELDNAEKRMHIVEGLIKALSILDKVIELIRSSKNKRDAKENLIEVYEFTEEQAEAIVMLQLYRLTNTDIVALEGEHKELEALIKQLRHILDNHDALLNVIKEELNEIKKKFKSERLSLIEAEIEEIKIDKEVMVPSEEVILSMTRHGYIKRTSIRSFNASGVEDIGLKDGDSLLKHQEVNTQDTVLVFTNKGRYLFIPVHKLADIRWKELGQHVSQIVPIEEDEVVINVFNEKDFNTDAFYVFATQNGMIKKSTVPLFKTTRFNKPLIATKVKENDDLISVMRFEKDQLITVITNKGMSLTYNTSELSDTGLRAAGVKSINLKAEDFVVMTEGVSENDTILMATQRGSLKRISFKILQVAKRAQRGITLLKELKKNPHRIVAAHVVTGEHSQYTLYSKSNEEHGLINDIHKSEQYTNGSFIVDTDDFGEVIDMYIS
Entries and their IC50 values follow.

[
  {
    "structure-notation": "COc1ccc2nccc(CCN3CCC(NCc4ccccc4)CC3)c2n1",
    "IC50": "> 100 µM"
  }
]

Task item: Identify the measured IC50 of `COc1ccc2nccc(CCN3CCC(NCc4cnn(-c5ccccc5)n4)CC3)c2n1` for S. aureus Topo IV (Staphylococcus aureus).
Reply: > 100 µM

Task item: Another: `COc1ccc2nccc(CCN3CCC(NCc4ccc(CO)cc4)CC3)c2n1`
Reply: > 100 µM

Task item: Another: `COc1ccc2nccc(CCN3CCC(NCc4cnn(C(C)C)c4)CC3)c2n1`
Reply: 40.4 µM

Task item: Another: `COc1ccc2nccc(CCN3CCC(NCc4nc5ccccc5n4C)CC3)c2n1`
Reply: > 100 µM

###

target: Human topoisomerase IIα (Homo sapiens, UniProt P11388); construct: purchased Inspiralis (Norwich, UK); assay: Human topoisomerase II Alpha Relaxation High Throughput Plate assay; format: biochemical; settings: 0.5 h; residual activity of the enzyme at compound concentration 10 μM, mean ± SD; read-out: Human Topo II (% RA)
Sequence (P11388 whole entry): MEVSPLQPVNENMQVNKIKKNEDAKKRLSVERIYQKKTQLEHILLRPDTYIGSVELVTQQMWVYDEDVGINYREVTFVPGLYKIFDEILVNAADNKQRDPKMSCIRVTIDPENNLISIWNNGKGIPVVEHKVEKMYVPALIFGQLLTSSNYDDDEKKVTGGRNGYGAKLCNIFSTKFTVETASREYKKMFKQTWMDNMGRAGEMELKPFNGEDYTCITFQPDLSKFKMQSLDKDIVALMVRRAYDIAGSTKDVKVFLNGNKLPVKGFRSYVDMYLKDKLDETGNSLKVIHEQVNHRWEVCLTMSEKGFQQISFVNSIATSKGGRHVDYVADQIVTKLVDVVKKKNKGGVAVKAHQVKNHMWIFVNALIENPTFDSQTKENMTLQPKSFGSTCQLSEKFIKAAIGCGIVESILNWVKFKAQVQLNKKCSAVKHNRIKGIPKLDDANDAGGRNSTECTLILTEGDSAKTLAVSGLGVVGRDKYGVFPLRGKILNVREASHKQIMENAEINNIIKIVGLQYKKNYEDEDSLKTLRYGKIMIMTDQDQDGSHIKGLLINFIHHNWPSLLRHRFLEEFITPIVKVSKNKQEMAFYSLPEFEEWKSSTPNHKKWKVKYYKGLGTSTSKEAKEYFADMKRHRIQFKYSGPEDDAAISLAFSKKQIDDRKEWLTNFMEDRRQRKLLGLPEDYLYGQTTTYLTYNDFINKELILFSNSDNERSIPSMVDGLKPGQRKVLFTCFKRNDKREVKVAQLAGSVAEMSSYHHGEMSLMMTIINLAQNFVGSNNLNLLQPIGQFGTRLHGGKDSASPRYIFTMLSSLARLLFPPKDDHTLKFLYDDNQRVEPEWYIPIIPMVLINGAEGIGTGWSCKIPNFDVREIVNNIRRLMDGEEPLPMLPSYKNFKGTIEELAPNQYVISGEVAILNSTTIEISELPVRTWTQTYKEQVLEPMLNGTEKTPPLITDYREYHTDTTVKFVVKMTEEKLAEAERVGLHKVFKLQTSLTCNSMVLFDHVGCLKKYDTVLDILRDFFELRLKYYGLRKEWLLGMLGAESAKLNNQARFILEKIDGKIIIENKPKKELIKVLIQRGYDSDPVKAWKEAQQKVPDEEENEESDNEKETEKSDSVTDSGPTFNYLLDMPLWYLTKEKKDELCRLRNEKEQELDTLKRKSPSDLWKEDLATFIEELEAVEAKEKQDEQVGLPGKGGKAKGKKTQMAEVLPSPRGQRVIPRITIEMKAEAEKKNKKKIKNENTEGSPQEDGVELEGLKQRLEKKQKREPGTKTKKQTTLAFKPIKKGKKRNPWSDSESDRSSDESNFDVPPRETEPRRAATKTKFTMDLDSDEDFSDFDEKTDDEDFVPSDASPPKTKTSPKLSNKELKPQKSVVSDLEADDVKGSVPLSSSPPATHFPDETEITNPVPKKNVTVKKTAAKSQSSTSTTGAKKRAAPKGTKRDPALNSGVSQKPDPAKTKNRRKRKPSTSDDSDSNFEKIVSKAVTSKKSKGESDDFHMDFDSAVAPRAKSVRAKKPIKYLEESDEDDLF
Entries and their remaining activity at 10 µM values follow.

Below are worked cases with known answers.
[
  {
    "structure-notation": "COc1ccc2nccc(CCN3CCC(NCc4cnn(-c5ccc(F)cc5)c4)CC3)c2n1",
    "remaining activity at 10 µM": "88.4%"
  },
  {
    "structure-notation": "C=CCn1cc(CNC2CCN(CCc3ccnc4ccc(OC)nc34)CC2)cn1",
    "remaining activity at 10 µM": "95.7%"
  },
  {
    "structure-notation": "COc1ccc2nccc(CCN3CCC(NCc4ccc(C(N)=O)cc4)CC3)c2n1",
    "remaining activity at 10 µM": "97.8%"
  },
  {
    "structure-notation": "COc1ccc2nccc(CCN3CCC(NCc4ccc(OC(F)F)c(O)c4)CC3)c2n1",
    "remaining activity at 10 µM": "94.8%"
  },
  {
    "structure-notation": "COc1ccc2nccc(CCN3CCC(NCc4ccc(CO)cc4)CC3)c2n1",
    "remaining activity at 10 µM": "97.7%"
  }
]

Task item: Consider the compound `COc1ccc2nccc(CCN3CCC(NCc4cnn(C(C)C)c4)CC3)c2n1` and give its measured remaining activity at 10 µM.
Reply: 101%

Task item: Another: `COc1ccc2nccc(CCN3CCC(NCc4ccc(N(C)C)cc4)CC3)c2n1`
Reply: 94.2%

Task item: Another: `COc1ccc2nccc(CCN3CCC(NCc4ccc(Cl)cc4)CC3)c2n1`
Reply: 102%

Task item: Another: `COc1ccc2nccc(CCN3CCC(NCc4c(C)nc5c(C)cccn45)CC3)c2n1`
Reply: 99.4%
